I'd be grateful if you could share measured EC50 for these entries.
- Test system: Plasmodium falciparum K1
- methodNotes: microbe, parasite or virus in culture
- Format: cell-based
- recordedConditions: Plasmodium falciparum, K1, read-out: EC50 P. falc.
Response body: numeric value in nM, unit text excluded.

Give its EC50 value. Item: CCOC(=O)C1=C(C)N/C(=C/c2cc(C)n(C3CCN(CCN4CCOCC4)CC3)c2C)C1=O [Compound 37]
5300

Give its EC50 value. Item: CCOC(=O)C1=C(C)N/C(=C/c2cc(C)n(C3CCN(Cc4ccc(C(F)(F)F)nc4)CC3)c2C)C1=O [Compound 43]
4

Give its EC50 value. Item: CCOC(=O)C1=C(C)N/C(=C/c2cc(C)n(C3CCN(Cc4ccc(F)cc4C(F)(F)F)CC3)c2C)C1=O [Compound 44]
0.4

Give its EC50 value. Item: CCOC(=O)C1=C(C)N/C(=C/c2cc(C)n(C3CCN(CCC(C)C)CC3)c2C)C1=O [Compound 21]
190

Give its EC50 value. Item: CCOC(=O)C1=C(C)N/C(=C/c2cc(C)n(C3CCN(Cc4cnc(N5CCOCC5)nc4)CC3)c2C)C1=O [Compound 53]
75

Give its EC50 value. Item: Cc1cc(/C=C2/Nc3ccn(CCN(C)C)c(=O)c3C2=O)c(C)n1-c1ccccc1C(F)(F)F [Compound 61]
250

Give its EC50 value. Item: CCOC(=O)C1=C(C)N/C(=C/c2cc(C)n(C3CCN(CC4CCOCC4)CC3)c2C)C1=O [Compound 41]
110

Give its EC50 value. Item: CCOC(=O)C1=C(C)N/C(=C/c2cc(C)n(C3CCNCC3)c2C)C1=O [Compound 18]
12000

---

- System: L6 cells
- methodNotes: In vitro cytotoxicity assay in L6 cells (Alamar Blue)
- Format: cell-based
- recordedConditions: Rattus norvegicus; Table 1, A-ring variants; mammalian L6 cells; mean of two independent assays; read-out: EC50 L6 cells
pEC50: −log10 of the molar value.
Hi, to clarify the labels: satisfied covers pEC50 from 5 upward, not satisfied covers anything below 5.

Threshold query (pEC50 >= 5) on CCOC(=O)C1=C(C)N/C(=C/c2cc(C)n(C3CCNCC3)c2C)C1=O [Compound 18]
not satisfied

Threshold query (pEC50 >= 5) on CCOC(=O)C1=C(C)N/C(=C/c2cc(C)n(C3CCN(Cc4ccc(F)cc4F)CC3)c2C)C1=O [Compound 27]
not satisfied

Threshold query (pEC50 >= 5) on CCOC(=O)C1=C(C)N/C(=C/c2cc(C)n(C3CCN(Cc4ccc(F)cc4)CC3)c2C)C1=O [Compound 26]
not satisfied

Threshold query (pEC50 >= 5) on CCOC(=O)C1=C(C)N/C(=C/c2cc(C)n(C3CCN(C(C)c4ccc(C(F)(F)F)cc4)CC3)c2C)C1=O (stereo not shown) [Compound 35]
satisfied

Threshold query (pEC50 >= 5) on CCOC(=O)C1=C(C)N/C(=C/c2cc(C)n(C3CCN(CCC(C)C)CC3)c2C)C1=O [Compound 21]
not satisfied

Threshold query (pEC50 >= 5) on CCOC(=O)C1=C(C)N/C(=C/c2cc(C)n(C3CCN(Cc4ccc(F)cc4C(F)(F)F)CC3)c2C)C1=O [Compound 44]
satisfied

---

- methodNotes: Aqueous solubility estimated by nephelometry
- Assay type: physicochemical
- recordedConditions: simulated gastric fluid, kinetic from dmso stock; pH 2.0 (0.01N HCl); nephelometry; 1% DMSO; read-out: Solubility pH 2.0
measuredMetric: solubility

Give its solubility value. Item: CCOC(=O)C1=C(C)N/C(=C/c2cc(C)n(C3CCN(CCc4ccc(OC)cc4)CC3)c2C)C1=O
100 to 200 µM

Give its solubility value. Item: CCOC(=O)C1=C(C)N/C(=C/c2cc(C)n(C3CCN(CC)CC3)c2C)C1=O
> 250 µM

Give its solubility value. Item: CCOC(=O)C1=C(C)N/C(=C/c2cc(C)n(C3CCN(CCc4ccc(F)cc4)CC3)c2C)C1=O
52 to 100 µM

Give its solubility value. Item: CCOC(=O)C1=C(C)N/C(=C/c2cc(C)n(C3CCN(Cc4ccc(C(F)(F)F)cc4)CC3)c2C)C1=O
48 to 97 µM

Give its solubility value. Item: CCOC(=O)C1=C(C)N/C(=C/c2cc(C)n(C3CCN(Cc4ccccc4)CC3)c2C)C1=O
56 to 110 µM

---

I'd be grateful if you could share measured melting point for these entries.

Give its melting point value. Item: CCOC(=O)C1=C(C)N/C(=C/c2cc(C)n(C3CCNCC3)c2C)C1=O [Compound 18]
> 250 °C

Give its melting point value. Item: CCOC(=O)C1=C(C)N/C(=C/c2cc(C)n(C3CCN(Cc4cccn4C)CC3)c2C)C1=O [Compound 50]
190 to 194 °C

Give its melting point value. Item: Cc1cc(/C=C2/Nc3ccn(Cc4ccc(C(F)(F)F)cc4)c(=O)c3C2=O)c(C)n1-c1ccccc1C(F)(F)F [Compound 63]
235 to 240 °C

Give its melting point value. Item: CCOC(=O)C1=C(C)N/C(=C/c2cc(C)n(C3CCN(Cc4cnc(N5CCOCC5)nc4)CC3)c2C)C1=O [Compound 53]
194 to 199 °C

---

- Test system: L6 cells
- methodNotes: In vitro cytotoxicity assay in L6 cells (Alamar Blue)
- Assay type: cell-based
- recordedConditions: Rattus norvegicus; Table 1, A-ring variants; mammalian L6 cells; mean of two independent assays; read-out: EC50 L6 cells
measuredMetric: pEC50
Entry type: numeric. Quantity: pEC50, the -log10 of concentration in molar units.

Give its pEC50 value. Item: CCOC(=O)C1=C(C)N/C(=C/c2cc(C)n(C3CCN(CC)CC3)c2C)C1=O
5.12

Give its pEC50 value. Item: CCOC(=O)C1=C(C)N/C(=C/c2cc(C)n(C3CCN(c4ccc(C(F)(F)F)cc4)CC3)c2C)C1=O
5.00

Give its pEC50 value. Item: CCOC(=O)C1=C(C)N/C(=C/c2cc(C)n(C3CCN(Cc4ccn(C)n4)CC3)c2C)C1=O
4.44

Give its pEC50 value. Item: CCOC(=O)C1=C(C)N/C(=C/c2cc(C)n(C3CCN(Cc4cc(C)on4)CC3)c2C)C1=O
4.38

---

- System: L6 cells
- methodNotes: In vitro cytotoxicity assay in L6 cells (Alamar Blue)
- Format: cell-based
- recordedConditions: Rattus norvegicus; Table 1, A-ring variants; mammalian L6 cells; mean of two independent assays; read-out: EC50 L6 cells
- Experimental: V. Design and Results of the in vitro & in vivo Studies. A. Drug inhibition of in vitro cultured P. falciparum parasite:2 All in vitro assays were carried out twice independently. In vitro activity against the erythrocytic stages of P. […] B. In vitro cytotoxicity assay:2 Assays were performed in 96-well microtiter plates, each […] Then the plates were read with a Spectramax Gemini XS microplate fluorometer (Molecular Devices Cooperation, Sunnyvale, CA, USA) using an excitation wave length of […]
I'd be grateful if you could share measured pEC50 for these entries.
Entry type: numeric. Quantity: pEC50, the -log10 of concentration in molar units.

Give its pEC50 value. Item: CCOC(=O)C1=C(C)N/C(=C/c2cc(C)n(C3CCN(CCN4CCCCC4)CC3)c2C)C1=O [Compound 38]
4.01

Give its pEC50 value. Item: CCOC(=O)C1=C(C)N/C(=C/c2cc(C)n(C3CCN(CCN4CCOCC4)CC3)c2C)C1=O [Compound 37]
4.05

Give its pEC50 value. Item: CCOC(=O)C1=C(C)N/C(=C/c2cc(C)n(C3CCN(Cc4ccc(N5CCOCC5)nc4)CC3)c2C)C1=O [Compound 52]
4.30

Give its pEC50 value. Item: CCOC(=O)C1=C(C)N/C(=C/c2cc(C)n(C3CCN(Cc4cnc(N5CCOCC5)nc4)CC3)c2C)C1=O [Compound 53]
4.55

Give its pEC50 value. Item: CCOC(=O)C1=C(C)N/C(=C/c2cc(C)n(C3CCN(CC4CCN(C)CC4)CC3)c2C)C1=O [Compound 42]
4.09

Give its pEC50 value. Item: CCOC(=O)C1=C(C)N/C(=C/c2cc(C)n(C3CCN(Cc4ccc(-c5noc(C)n5)cc4)CC3)c2C)C1=O [Compound 51]
4.96

Give its pEC50 value. Item: CCOC(=O)C1=C(C)N/C(=C/c2cc(C)n(C3CCN(Cc4nccn4C)CC3)c2C)C1=O [Compound 49]
4.80

---

I'd be grateful if you could share measured solubility for these entries.
- methodNotes: Aqueous solubility estimated by nephelometry
- Format: physicochemical
- recordedConditions: aqueous buffer, kinetic from dmso stock; pH 6.5 phosphate buffer; nephelometry; 1% DMSO; read-out: Solubility pH 6.5

Give its solubility value. Item: CCOC(=O)C1=C(C)N/C(=C/c2cc(C)n(C3CCN(Cc4ccccc4)CC3)c2C)C1=O [Compound 17]
14 to 28 µM

Give its solubility value. Item: CCOC(=O)C1=C(C)N/C(=C/c2cc(C)n(C3CCN(CC)CC3)c2C)C1=O [Compound 20]
> 250 µM

Give its solubility value. Item: CCOC(=O)C1=C(C)N/C(=C/c2cc(C)n(C3CCN(Cc4ccc(C(F)(F)F)cc4)CC3)c2C)C1=O [Compound 28]
6 to 12 µM

Give its solubility value. Item: CCOC(=O)C1=C(C)N/C(=C/c2cc(C)n(C3CCN(CCc4ccc(F)cc4)CC3)c2C)C1=O [Compound 34]
13 to 26 µM

Give its solubility value. Item: CCOC(=O)C1=C(C)N/C(=C/c2cc(C)n(C3CCN(CCc4ccc(OC)cc4)CC3)c2C)C1=O [Compound 32]
25 to 51 µM
